# Tested on: T.b. brucei (strain 427) bloodstream form parasites
# Assay Name: Trypanosoma brucei assay, dose–response (this study)
# Format: cell-based
# Condition Summary: Trypanosoma brucei, 48 h, read-out: T. brucei brucei IC50 (μM) This study
Assay Metric: IC50 (µM)
One number for each entry, in µM.

test_smiles=Cc1nn(C)c(C)c1NS(=O)(=O)c1c(Cl)cc(-c2ccnc(N3CCNCC3)c2)cc1Cl assay_metric=IC50 value_unit=µM experimental_result=11

We now examine a further compound.
Exercise: Param readout= IC50; system= T.b. brucei (strain 427) bloodstream form parasites; entry= COc1ccc(C2=NN(C3CCCCCC3)C(=O)[C@@H]3CC=CC[C@H]23)cc1OCCCCOc1ccc(-c2nnn[nH]2)cc1 ; returns value.
Key: 0.12

* * *

# Tested on: HeLa cells
# Assay Name: HeLa cell assay (cytotoxicity)
# Assay type: cell-based
# Condition Summary: Homo sapiens; Table 2; HeLa cells, 48 hours, resazurin; read-out: HeLa IC50
Assay Metric: IC50 (µM)
One number for each entry, in µM.

Consider the worked cases shown below.
molecule="Cc1ccc2[nH]c(C3CCCNC3)c(-c3ccncc3)c2c1 (stereo not drawn) [Compound 36, Cc1ccc2[nH]c(C3CCCNC3)c(c4ccncc4)c2c1]" tested_target="HeLa cells" value_unit=µM experimental_result=8.9
molecule="CN1CCC(NCc2cccc(-c3ccc(S(=O)(=O)NCc4ccccc4)cc3)c2)CC1 [Compound 56]" tested_target="HeLa cells" value_unit=µM experimental_result=13

We now examine a further molecule.
Exercise: Consider the molecule CN1CCN(CCCOc2ncc(Nc3ncc(-c4ccc(C(F)(F)F)c(F)c4)nc3C(N)=O)cn2)CC1 [Compound 46] and give its measured IC50.
Key: 4.8

* * *

# Tested on: HeLa cells
# Assay Name: HeLa cell assay (cytotoxicity)
# Type: cell-based
# Condition Summary: Homo sapiens, HeLa, 48 h, read-out: HeLa IC50 (μM)
Would you mind telling me the reported IC50 of each entry?

test_smiles=Cc1nn(C)c(C)c1NS(=O)(=O)c1c(Cl)cc(-c2ccnc(N3CCNCC3)c2)cc1Cl experimental_result="2.8 µM"
test_smiles=COc1ccc(C2=NN(C3CCCCCC3)C(=O)[C@@H]3CC=CC[C@H]23)cc1OCCCCOc1ccc(-c2nnn[nH]2)cc1 experimental_result="> 25 µM"

We now examine a further molecule.
Exercise: Consider the molecule O=C(COc1cccc(F)c1)Nc1nc(-c2ccccn2)cs1 and give its measured IC50.
Key: > 25 µM

* * *

# Tested on: HeLa cells
# Assay Name: HeLa cell assay (cytotoxicity)
# Type: cell-based
# Condition Summary: Homo sapiens; Table 2; HeLa cells, 48 hours, resazurin; read-out: HeLa IC50
Threshold check on IC50: strictly below 8 µM is T; on or above 8 µM is F.

compound=Nc1nccc2ccc(-c3ccc4nccn4c3)cc12 label_class=T
compound=OCCc1ccc(Nc2nccc(-c3nnc4ccccn34)n2)cc1 label_class=F

Please look at the following compound next.
Exercise: Please state whether IC50 is below 8 µM for Cc1cnc(N2CCN[C@@H](Cc3ccccc3)C2)nc1Oc1ccc(-n2ccnc2)cc1
Key: F

* * *

# Test system: HeLa cells
# Assay Name: HeLa cell assay (cytotoxicity)
# Type: cell-based
# Condition Summary: Homo sapiens; Table 2; HeLa cells, 48 hours, resazurin; read-out: HeLa IC50
Would you mind telling me the reported IC50 of each entry?

test_smiles=Oc1c(I)cc(I)c2cccnc12 experimental_result="> 25 µM"
test_smiles=COc1ccc2nccc(NC(=O)C3CCN(CCc4ccc(Cl)cc4)CC3)c2n1 experimental_result="> 25 µM"
test_smiles=COc1cc(-c2cc(-c3ccc(S(C)(=O)=O)cc3)cnc2N)ccc1O experimental_result="> 25 µM"

We now examine a further molecule.
Exercise: Consider the molecule COc1ccc(OC)c(NCc2ccc3nc(N)nc(N)c3c2Cl)c1 and give its measured IC50.
Key: > 25 µM
